Molecular target: Glucocorticoid receptor (Homo sapiens, UniProt P04150)
Sequence (P04150 whole entry): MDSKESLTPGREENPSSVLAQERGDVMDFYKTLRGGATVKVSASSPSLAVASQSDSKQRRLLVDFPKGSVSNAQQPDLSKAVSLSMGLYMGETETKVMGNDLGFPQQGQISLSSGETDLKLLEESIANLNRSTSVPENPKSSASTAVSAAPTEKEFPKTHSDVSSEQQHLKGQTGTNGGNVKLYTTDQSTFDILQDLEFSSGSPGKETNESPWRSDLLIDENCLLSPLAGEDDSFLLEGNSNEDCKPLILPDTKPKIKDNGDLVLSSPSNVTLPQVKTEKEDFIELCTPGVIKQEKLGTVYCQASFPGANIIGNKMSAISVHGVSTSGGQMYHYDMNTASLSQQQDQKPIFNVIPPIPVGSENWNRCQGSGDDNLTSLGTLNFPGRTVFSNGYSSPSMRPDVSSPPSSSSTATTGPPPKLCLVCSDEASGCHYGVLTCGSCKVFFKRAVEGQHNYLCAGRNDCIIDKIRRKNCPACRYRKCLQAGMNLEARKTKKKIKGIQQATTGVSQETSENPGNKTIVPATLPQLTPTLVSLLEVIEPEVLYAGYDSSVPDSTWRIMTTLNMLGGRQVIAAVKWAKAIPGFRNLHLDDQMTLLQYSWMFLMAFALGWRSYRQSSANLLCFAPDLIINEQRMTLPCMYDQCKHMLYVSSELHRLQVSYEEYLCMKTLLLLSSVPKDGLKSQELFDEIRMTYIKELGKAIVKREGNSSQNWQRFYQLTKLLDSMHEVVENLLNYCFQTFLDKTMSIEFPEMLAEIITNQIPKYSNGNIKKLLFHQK
Assay: Inhibition of [3H]dexamethasone binding to human Glucocorticoid Receptor
assay.endpoint: IC50
Quick note: number first, unit second.

IC50 recorded for this molecule, CC1(C)O[C@@H]2CC3C4C[C@H](F)C5=CC(=O)C=C[C@]5(C)[C@@]4(F)[C@@H](O)C[C@]3(C)[C@]2(C(=O)CSC(CCO)C(=O)O)O1 (stereo partly specified) , is 194 nM
